# method_summary: collision cross section of modified peptide (TIMS, N2, iRT-aligned); higher = larger / more extended gas-phase ion
# condition_label: charge state: 2; modification: Acetyl (K)

{"seq_text": "ASEALLKQLK [_ASEALLK(Acetyl (K))QLK_]", "unit_tag": "Å²", "collision cross section": 373.11}
{"seq_text": "INNFSADIKDSK [_INNFSADIK(Acetyl (K))DSK_]", "unit_tag": "Å²", "collision cross section": 398.34}
{"seq_text": "VDIDAPDVSIEGPDAKLK [_VDIDAPDVSIEGPDAK(Acetyl (K))LK_]", "unit_tag": "Å²", "collision cross section": 462.55}
{"seq_text": "VGTASVLQPVKK [_VGTASVLQPVK(Acetyl (K))K_]", "unit_tag": "Å²", "collision cross section": 379.84}
{"seq_text": "VYIASSSGSTAIKK [_VYIASSSGSTAIK(Acetyl (K))K_]", "unit_tag": "Å²", "collision cross section": 414.5}
{"seq_text": "GAEKTEVAEPR [_GAEK(Acetyl (K))TEVAEPR_]", "unit_tag": "Å²", "collision cross section": 370.22}
{"seq_text": "TLQKQSVVYGGK [_TLQK(Acetyl (K))QSVVYGGK_]", "unit_tag": "Å²", "collision cross section": 392.07}
{"seq_text": "SDSGKPYYYNSQTK [_SDSGK(Acetyl (K))PYYYNSQTK_]", "unit_tag": "Å²", "collision cross section": 419.63}
{"seq_text": "PSVGSQSNQAGQGKR [_PSVGSQSNQAGQGK(Acetyl (K))R_]", "unit_tag": "Å²", "collision cross section": 409.31}
{"seq_text": "IHNAENIQPGEQKYEYK [_IHNAENIQPGEQK(Acetyl (K))YEYK_]", "unit_tag": "Å²", "collision cross section": 481.31}
{"seq_text": "AGPNASIISLKSDK [_AGPNASIISLK(Acetyl (K))SDK_]", "unit_tag": "Å²", "collision cross section": 408.51}
